- Tested on: Escherichia coli BW25113
- Protocol Summary: Inhibition of AcrB in wild-type drug resistant Escherichia coli BW25113 assessed as potentiation of chloramphenicol-induced antibacterial activity after 18 hrs by checkerboard method
The source made the active and inactive calls. The rule behind the calls is not given here.
Entry note: the call must match one of TRUE = active, FALSE = inactive

Hi, do you know how NC(=O)c1cc(OCc2ccccc2F)c2ccccc2c1 came out in this test?
FALSE

Hi, do you know how CCOC(=O)C(C)Oc1cc(C(N)=O)cc2ccccc12 (stereo not given) came out in this test?
FALSE

Hi, do you know how NC(=O)c1cc(OCc2ccccc2)c2ccccc2c1 came out in this test?
TRUE

Hi, do you know how CCOC(=O)CCCOc1cc(C(N)=O)cc2ccccc12 came out in this test?
FALSE

Hi, do you know how Cc1ccccc1COc1cc(C(N)=O)cc2ccccc12 came out in this test?
FALSE

---

- Tested on: Escherichia coli BW25113
- Protocol Summary: Inhibition of AcrB in wild-type drug resistant Escherichia coli BW25113 assessed as potentiation of erythromycin-induced antibacterial activity after 18 hrs by checkerboard method
Activity calls are given as the source filed them. The calls are words filed in the database; no cut-off is given here.
Quantity Measured: inhibition

{"Compound": "CCC(C)Oc1cc(C(N)=O)cc2ccccc12 (stereo not drawn)", "Measured Value": "inactive"}
{"Compound": "CCOC(=O)C(C)Oc1cc(C(N)=O)cc2ccccc12 (stereo not drawn)", "Measured Value": "inactive"}
{"Compound": "NC(=O)c1cc(OCc2ccc(F)cc2)c2ccccc2c1", "Measured Value": "inactive"}
